These entries and their values trace back to patent US20020132817A1.

We begin with a simple list: items and their reported melting point.

COMPOUND | melting point
CN(C)C(=O)c1cc(-c2ccccc2)c2c(n1)OCCN(Cc1cc(C(F)(F)F)cc(C(F)(F)F)c1)C2=O [Reference Example 113] | 235 to 236 °C
Cc1ccc(-c2c3n(c(=O)c4ncccc24)CC[C@@H](C)CN(Cc2cc(Cl)cc(Cl)c2)C3=O)cc1 | 139 to 141 °C
COc1cc(CN2C[C@H](C)CCn3c(c(-c4ccc(Cl)c(Cl)c4)c4cccnc4c3=O)C2=O)cc(OC)c1 | 207 to 208 °C
CC(=O)OCc1cc(-c2ccccc2)c2c(n1)OCCCN(Cc1cc(C(F)(F)F)cc(C(F)(F)F)c1)C2=O [Reference Example 92] | 156 to 157 °C
Cc1cnc2c(c1-c1ccccc1)C(=O)N(Cc1cc(C(F)(F)F)cc(C(F)(F)F)c1)CCN(C)C2=O [Reference Example 104] | 203 to 205 °C
O=C1c2c(-c3ccccc3)ccnc2OCCN1Cc1ccccc1 [Reference Example 121] | 209 to 211 °C
CCN1CCN(Cc2cc(C(F)(F)F)cc(C(F)(F)F)c2)C(=O)c2c(ncc(C)c2-c2ccccc2)C1=O [Reference Example 107] | 228 to 229 °C
